- testDescription: electronic properties, UV/Vis spectrophotometry of methanolic solutions
- Assay type: physicochemical
- cond: methanolic solution c = 8.0 × 10^−5 M, λ1 = 208–210 nm

| compound | log ε1 |
| --- | --- |
| CCCCOc1cccc(NC(=O)OC(CN(CCC)CCC)CN2CCCC2)c1 (stereo not drawn) | 4.65 |
| CCCCCCCOc1cccc(NC(=O)OC(CN(CCC)CCC)CN2CCCC2)c1.Cl.Cl (stereo not drawn) | 4.66 |
| CCCCCCOc1ccccc1NC(=O)OC(CN(CCC)CCC)CN1CCCC1 (stereo not drawn) | 4.58 |
| CCCCCOc1cccc(NC(=O)OC(CN(CCC)CCC)CN2CCCC2)c1.Cl.Cl (stereo not drawn) | 4.55 |
| CCCCCCOc1cccc(NC(=O)OC(CN(CCC)CCC)CN2CCCCCC2)c1.Cl.Cl (stereo not drawn) | 4.52 |
| CCCCOc1ccccc1NC(=O)OC(CN(CCC)CCC)CN1CCCCCC1 (stereo not drawn) | 4.44 |
| CCCCCOc1ccccc1NC(=O)OC(CN(CCC)CCC)CN1CCCCCC1.O=C(O)C(=O)O (stereo not drawn) | 4.54 |
| CCCCCOc1ccccc1NC(=O)OC(CN(CCC)CCC)CN1CCCC1 (stereo not drawn) | 4.39 |
| CCCCCOc1cccc(NC(=O)OC(CN(CCC)CCC)CN2CCCCCC2)c1.Cl.Cl (stereo not drawn) | 4.56 |

====

k (retention factor) values for the compounds below.
- testDescription: lipophilicity by isocratic RP-HPLC (log k, k, log kw, S)
- Assay type: physicochemical
- cond: mobile phase pure MeOH
propertyLabel: k (retention factor)

| compound | val |
| --- | --- |
| CCCCCCCOc1ccccc1NC(=O)OC(CN(CCC)CCC)CN1CCCC1.Cl.Cl (centres unmarked) | 1.4365 |
| CCCCCOc1ccccc1NC(=O)OC(CN(CCC)CCC)CN1CCCCCC1.O=C(O)C(=O)O (centres unmarked) | 1.3960 |
| CCCCOc1ccccc1NC(=O)OC(CN(CCC)CCC)CN1CCCCCC1 (centres unmarked) | 1.3198 |
| CCCCCCOc1ccccc1NC(=O)OC(CN(CCC)CCC)CN1CCCCCC1 (centres unmarked) | 2.1394 |
| CCCCCCCOc1cccc(NC(=O)OC(CN(CCC)CCC)CN2CCCC2)c1.Cl.Cl (centres unmarked) | 0.6091 |

====

Listed below: log k values for each entry.
- testDescription: lipophilicity by isocratic RP-HPLC (log k, k, log kw, S)
- Assay type: physicochemical
- cond: mobile phase MeOH/water 95:5 (v/v)

| compound | log k |
| --- | --- |
| CCCCCOc1cccc(NC(=O)OC(CN(CCC)CCC)CN2CCCCCC2)c1.Cl.Cl (centres unmarked) [1n] | 0.0941 |
| CCCCOc1cccc(NC(=O)OC(CN(CCC)CCC)CN2CCCCCC2)c1 (centres unmarked) [1m] | 0.0424 |
| CCCCCCOc1ccccc1NC(=O)OC(CN(CCC)CCC)CN1CCCCCC1 (centres unmarked) [1k] | 0.5221 |
| CCCCCCCOc1ccccc1NC(=O)OC(CN(CCC)CCC)CN1CCCC1.Cl.Cl (centres unmarked) [1d] | 0.4052 |
| CCCCCOc1ccccc1NC(=O)OC(CN(CCC)CCC)CN1CCCC1 (centres unmarked) [1b] | 0.2841 |
| CCCCOc1ccccc1NC(=O)OC(CN(CCC)CCC)CN1CCCC1 (centres unmarked) [1a] | 0.2008 |
| CCCCCCCOc1cccc(NC(=O)OC(CN(CCC)CCC)CN2CCCCCC2)c1.O=C(O)C(=O)O (centres unmarked) [1l] | 0.6271 |
| CCCCCOc1cccc(NC(=O)OC(CN(CCC)CCC)CN2CCCC2)c1.Cl.Cl (centres unmarked) [1f] | −0.0941 |
| CCCCCCCOc1cccc(NC(=O)OC(CN(CCC)CCC)CN2CCCC2)c1.Cl.Cl (centres unmarked) [1h] | 0.2092 |
| CCCCCCOc1ccccc1NC(=O)OC(CN(CCC)CCC)CN1CCCC1 (centres unmarked) [1c] | 0.3683 |
| CCCCCCOc1cccc(NC(=O)OC(CN(CCC)CCC)CN2CCCC2)c1 (centres unmarked) [1g] | 0.1182 |

====

- Test system: Mycobacterium tuberculosis CNCTC My 331/88 (identical with H37Rv and ATCC 2794; MTv H37Rv)
- testDescription: in vitro antimycobacterial MIC, dilution micromethod in Šula's semisynthetic medium
- Type: cell-based
- cond: Mycobacterium tuberculosis, 336 h; 14-day cultivation; read-out: MIC MTv H37Rv 14-d

| compound | MIC [µM] |
| --- | --- |
| CC[C@@H](CO)NCCN[C@@H](CC)CO [EMB, ethambutol, reference compound] | 1 |
| CCCCCOc1cccc(NC(=O)OC(CN(CCC)CCC)CN2CCCC2)c1.Cl.Cl (stereo not drawn) | 16 |
| CCCCOc1cccc(NC(=O)OC(CN(CCC)CCC)CN2CCCC2)c1 (stereo not drawn) | 16 |
| CCCCCCCOc1cccc(NC(=O)OC(CN(CCC)CCC)CN2CCCCCC2)c1.O=C(O)C(=O)O (stereo not drawn) | 4 |
| CCCCOc1ccccc1NC(=O)OC(CN(CCC)CCC)CN1CCCCCC1 (stereo not drawn) | 16 |
| CCCCCCOc1cccc(NC(=O)OC(CN(CCC)CCC)CN2CCCCCC2)c1.Cl.Cl (stereo not drawn) | 8 |
| CCCCCCOc1ccccc1NC(=O)OC(CN(CCC)CCC)CN1CCCC1 (stereo not drawn) | 16 |
| CCCCOc1ccccc1NC(=O)OC(CN(CCC)CCC)CN1CCCC1 (stereo not drawn) | 32 |
| CCCCOc1cccc(NC(=O)OC(CN(CCC)CCC)CN2CCCCCC2)c1 (stereo not drawn) | 8 |

====

- testDescription: lipophilicity by isocratic RP-HPLC (log k, k, log kw, S)
- Type: physicochemical
- cond: mobile phase pure MeOH
I'd appreciate it if you could label each record using log k and these ranges: low value (below -0.2), medium value (-0.2 to below -0.04), high value (-0.04 or more)

| compound | category |
| --- | --- |
| CCCCCOc1cccc(NC(=O)OC(CN(CCC)CCC)CN2CCCC2)c1.Cl.Cl (centres unmarked) [1f] | low value |
| CCCCCCCOc1cccc(NC(=O)OC(CN(CCC)CCC)CN2CCCC2)c1.Cl.Cl (centres unmarked) [1h] | low value |
| CCCCOc1cccc(NC(=O)OC(CN(CCC)CCC)CN2CCCCCC2)c1 (centres unmarked) [1m] | low value |
| CCCCCCOc1cccc(NC(=O)OC(CN(CCC)CCC)CN2CCCCCC2)c1.Cl.Cl (centres unmarked) [1o] | medium value |
| CCCCCCOc1cccc(NC(=O)OC(CN(CCC)CCC)CN2CCCC2)c1 (centres unmarked) [1g] | low value |
| CCCCCCOc1ccccc1NC(=O)OC(CN(CCC)CCC)CN1CCCCCC1 (centres unmarked) [1k] | high value |
| CCCCCCCOc1cccc(NC(=O)OC(CN(CCC)CCC)CN2CCCCCC2)c1.Cl.Cl (centres unmarked) [1p] | medium value |
| CCCCCCCOc1ccccc1NC(=O)OC(CN(CCC)CCC)CN1CCCC1.Cl.Cl (centres unmarked) [1d] | high value |
| CCCCCOc1ccccc1NC(=O)OC(CN(CCC)CCC)CN1CCCC1 (centres unmarked) [1b] | high value |
| CCCCCOc1cccc(NC(=O)OC(CN(CCC)CCC)CN2CCCCCC2)c1.Cl.Cl (centres unmarked) [1n] | medium value |

====

Recorded MIC values for a group of molecules are listed next.
- Tested on: M. avium CNCTC My 330/80 (identical with ATCC 25291; MA 330/80)
- testDescription: in vitro antimycobacterial MIC, dilution micromethod in Šula's semisynthetic medium
- Format: cell-based, Mycobacterium avium
- cond: Mycobacterium avium, ATCC25291, 504 h, read-out: MIC MA 330/80 21-d

| molecule | MIC, µM |
| --- | --- |
| CCCCCOc1cccc(NC(=O)OC(CN(CCC)CCC)CN2CCCCCC2)c1.Cl.Cl (stereo not drawn) [1n] | 16 |
| CCCCCCOc1cccc(NC(=O)OC(CN(CCC)CCC)CN2CCCCCC2)c1.Cl.Cl (stereo not drawn) [1o] | 16 |
| CCCCCCCOc1cccc(NC(=O)OC(CN(CCC)CCC)CN2CCCC2)c1.Cl.Cl (stereo not drawn) [1h] | 16 |
| CCCCCOc1cccc(NC(=O)OC(CN(CCC)CCC)CN2CCCC2)c1.Cl.Cl (stereo not drawn) [1f] | 32 |
| CCCCCOc1ccccc1NC(=O)OC(CN(CCC)CCC)CN1CCCCCC1.O=C(O)C(=O)O (stereo not drawn) [1j] | 125 |
| CCCCCCCOc1ccccc1NC(=O)OC(CN(CCC)CCC)CN1CCCC1.Cl.Cl (stereo not drawn) [1d] | 32 |

====

- testDescription: lipophilicity by isocratic RP-HPLC (log k, k, log kw, S)
- Format: physicochemical
- cond: extrapolated to 100% water from log k versus ϕM

| molecule | log kw |
| --- | --- |
| CCCCOc1ccccc1NC(=O)OC(CN(CCC)CCC)CN1CCCCCC1 (centres unmarked) | 4.4679 |
| CCCCOc1cccc(NC(=O)OC(CN(CCC)CCC)CN2CCCC2)c1 (centres unmarked) | 4.0258 |
| CCCCCCOc1ccccc1NC(=O)OC(CN(CCC)CCC)CN1CCCC1 (centres unmarked) | 4.6049 |
| CCCCCCCOc1cccc(NC(=O)OC(CN(CCC)CCC)CN2CCCC2)c1.Cl.Cl (centres unmarked) | 5.5384 |
| CCCCCCOc1cccc(NC(=O)OC(CN(CCC)CCC)CN2CCCCCC2)c1.Cl.Cl (centres unmarked) | 5.6569 |
| CCCCCCCOc1cccc(NC(=O)OC(CN(CCC)CCC)CN2CCCCCC2)c1.Cl.Cl (centres unmarked) | 6.1749 |
| CCCCOc1ccccc1NC(=O)OC(CN(CCC)CCC)CN1CCCC1 (centres unmarked) | 3.7688 |
| CCCCCOc1cccc(NC(=O)OC(CN(CCC)CCC)CN2CCCCCC2)c1.Cl.Cl (centres unmarked) | 5.2087 |
| CCCCCCCOc1ccccc1NC(=O)OC(CN(CCC)CCC)CN1CCCC1.Cl.Cl (centres unmarked) | 4.9487 |
| CCCCCOc1ccccc1NC(=O)OC(CN(CCC)CCC)CN1CCCCCC1.O=C(O)C(=O)O (centres unmarked) | 4.8466 |
| CCCCCCOc1cccc(NC(=O)OC(CN(CCC)CCC)CN2CCCC2)c1 (centres unmarked) | 4.9446 |
